- MEASUREMENT PROTOCOL: Pharmacokinetic study of Compound A alone and in combination with Indinavir in healthy human males (Example 11)
- Format: in vivo
- RUN PARAMETERS: male, human, plasma, po, 200 mg Compound A + 800 mg IDV (Indinavir) co-administered, single oral dose, fasted, n=6; plasma 24 hours after dosing; read-out: C24 hrs
QUANTITY: concentration at 24 h (nM)
Express the result in nM but write the number alone.

Input CC(C)(C)NC(=O)[C@@H]1CN(Cc2cc3ccccc3o2)CCN1C[C@@H](O)C[C@@H](Cc1ccccc1)C(=O)N[C@H]1c2ccccc2C[C@H]1O , output reported concentration at 24 h.
8
